meta.source: ChEMBL document CHEMBL1201862

Tested on: SK-OV-3
Experiment: NCI tumour cell line growth inhibition, 48 h
Activity calls are given as the source filed them. Cut-off read from the data, not from the text of the source: active = GI50 up to about 1.1 µM and inactive = higher.
measured.metric: GI50

# compound, GI50
data = [
    ("C/C(=N\\N=C(/S)N1CC2CCC(CC2)C1)c1cccc[n+]1[O-]", "35.8 µM (inactive)"),
    ("Cc1cc(C)c2ccc(N3CCNCC3)nc2n1", "> 100 µM (inactive)"),
    ("[O-][n+]1c2cc(CN3CCOCC3)c(CN3CCOCC3)cc2[n+]([O-])c2c(O)cccc21", "4.13 µM (inactive)"),
    ("COC1=CC(=O)C2C(C1=O)[C@@H]1c3ccccc3OC[C@H]21 (stereo partly specified)", "> 100 µM (inactive)"),
    ("COc1ccc(-c2nc3ncccn3c2-c2ccc([S+](C)[O-])cc2)cc1 (stereo unspecified)", "45.3 µM (inactive)"),
    ("CC[C@@H]1CC[C@@H]2[C@H](CC[C@]3(C)[C@@H](OC(C)=O)CC[C@@H]23)[C@H]1C(=O)OC", "> 100 µM (inactive)"),
]

Next:
Kindly indicate its recorded GI50. Item: C=C(C)C1CC(=O)C(C)=C(O)C1 (stereo unspecified)
> 100 µM (inactive)

###

Test system: HCT-116
Test: NCI tumour cell line growth inhibition, 48 h
Active and inactive are the calls of the source. No stated cut-off is given here; in the data, active = GI50 up to about 1.1 µM and inactive = higher.
measured.metric: GI50

Here is how some molecules turned out for GI50.
# molecule, measured.metric, assay.value
rows = [
    ("CC1CCc2c(c(CC3CC(=O)NC(=O)C3)nn2-c2ccccc2)C1 (stereo unspecified)", "GI50", "> 100 µM (inactive)"),
    ("O=C(N/N=C\\c1ccc([N+](=O)[O-])cc1)Nc1cccc2ccccc12", "GI50", "28.5 µM (inactive)"),
    ("CN(C)CC1CCCC(CN(C)C)C1=NOC(=O)c1ccccc1 (stereo unspecified)", "GI50", "> 100 µM (inactive)"),
    ("COC(=O)C1(Cc2ccccc2)Cc2cc3c(cc2C1O)CCC3 (stereo unspecified)", "GI50", "17.9 µM (inactive)"),
]

Answer with reported GI50 of CN(CCN(C)C(=O)CCOS(C)(=O)=O)C(=O)CCOS(C)(=O)=O
> 100 µM (inactive)

Answer with reported GI50 of CCCCCCCCCCCCCCCCCCNC(=O)OCC(CNS(=O)(=O)CCC[n+]1cccc2ccccc21)COC (stereo unspecified)
1.35 µM (inactive)

###

System: SK-OV-3
Assay: NCI tumour cell line growth inhibition, 48 h
Active and inactive are the calls of the source. No stated cut-off is given here; in the data, active = GI50 up to about 1.1 µM and inactive = higher.
measured.metric: GI50

# compound, measurement.target, GI50
rows = [
    ("O=C1NC2(CCCCC2)C2=C1CCCCC2", "SK-OV-3", "> 100 µM (inactive)"),
    ("CCCCN(CCCC)CCCn1cnc2ncccc2c1=O", "SK-OV-3", "> 100 µM (inactive)"),
    ("COc1ccc(C(=O)O)c2c(=O)c3cccnc3[nH]c12", "SK-OV-3", "> 100 µM (inactive)"),
]

Now consider a different molecule.
Print SK-OV-3 GI50 for CN(C)CCCN1c2ccc([N+](=O)[O-])cc2CCc2cc([N+](=O)[O-])ccc21 .
17.2 µM (inactive)
